experiment: collision cross section of modified peptide (TIMS, N2, iRT-aligned); higher = larger / more extended gas-phase ion; details: charge state: 3; modification: GlyGly (K)
Response key: true means collision cross section >= 500 Å²; false means collision cross section < 500 Å².

These solved cases illustrate the format of a correct answer.
Sequence Chain	Class
VNVEAPDVNLEGLGGKLK [_VNVEAPDVNLEGLGGK(GlyGly (K))LK_]	true
SLFFGGKGAPLQR [_SLFFGGK(GlyGly (K))GAPLQR_]	false
VNALKNLQVK [_VNALK(GlyGly (K))NLQVK_]	false
VGEFSGANKEK [_VGEFSGANK(GlyGly (K))EK_]	false
ITGKNQVTATK [_ITGK(GlyGly (K))NQVTATK_]	false

hey, is collision cross section for this one >= 500 Å²? SDDESSQKDIK [_SDDESSQK(GlyGly (K))DIK_]
false

Has ASEALLKQLK [_ASEALLK(GlyGly (K))QLK_] a recorded collision cross section greater than or equal to 500 Å²?
false

Hi, just wondering whether GEVQVSDKER [_GEVQVSDK(GlyGly (K))ER_] shows collision cross section of 500 Å² or higher.
false

Item INNFSADIKDSK [_INNFSADIK(GlyGly (K))DSK_] with collision cross section of 500 Å² or above?
false

Check this sequence for collision cross section at or above 500 Å²: PASGAGAGAGAGKR [_PASGAGAGAGAGK(GlyGly (K))R_]
false

Dear colleague, could you confirm whether HELQANCYEEVKDR [_HELQANCYEEVK(GlyGly (K))DR_] has collision cross section at or above 500 Å²?
true

hey, is collision cross section for this one >= 500 Å²? SDSGKPYYYNSQTK [_SDSGK(GlyGly (K))PYYYNSQTK_]
false

Check if collision cross section >= 500 Å² (inclusive). Item: VSPASSVDSNIPSSQGYKK [_VSPASSVDSNIPSSQGYK(GlyGly (K))K_]
true
